Items are presented alongside their recorded Change in Heart Rate.
System: Anesthetized Dog
Assay: Effect of compounds on cardiac contractility, heart rate and blood pressure in Anesthetized Dog
Assay type: in vivo, mongrel dogs
Details: 10 μg/kg, intravenous
Please respond with the number in % and leave the unit unwritten.

Reference set, count: 3
[[record]]
record_smiles = "CCc1[nH]c(=O)c(C#N)cc1-c1ccc2nccn2c1"
endpoint_name = "Change in Heart Rate"
recorded_value = 0

[[record]]
record_smiles = "Cc1cn2cc(-c3cc(C#N)c(=O)[nH]c3C)ccc2n1"
endpoint_name = "Change in Heart Rate"
recorded_value = 8

[[record]]
record_smiles = "Cc1[nH]c(=O)ccc1-c1ccc2nccn2c1"
endpoint_name = "Change in Heart Rate"
recorded_value = 2


What the record says about Cc1[nH]c(=O)c(C#N)cc1-c1ccc2nccn2c1 : Change in Heart Rate is 6
